Tested on: EKVX NSCLC
Assay notes: NCI tumour cell line growth inhibition, 48 h
GI50 values by entry

O=C(/C=C/C12c3ccccc3C(c3ccccc31)C1C(=O)NC(=O)C12)c1ccc(F)cc1 (stereo not drawn); 1700 nM
Clc1ccccc1CNc1c2ccccc2nc2ccccc12; 2770 nM
CCC(=O)Nc1ccc(C)c(-c2ccc(C(=O)NCC3CC3)cc2)c1; > 25000 nM
Cc1ccc(NS(=O)(=O)c2cccc(C#N)c2)c2[nH]cc(C#N)c12; 26600 nM
Cc1ccc(NC(=O)CSc2nnc3n(Cc4ccccc4)c(=O)c4c(C)c(C(N)=O)sc4n23)cc1; 95000 nM

For record "CC1(N)CCN(c2cnc(-c3cccc(Cl)c3Cl)c(N)n2)CC1" the listed GI50 is 2580 nM

Reported GI50 of "CC(=[N-])N1CCC[C@@H](Nc2c3ccccc3nc3ccccc23)C1.[Cl][Pt].[NH-]CCC[NH-]" : 2170 nM

Value of measured GI50 for the entry CC(CN(C)C)Oc1ccccc1NC1=C(Cl)C(=O)C(Nc2ccccc2OC(C)CN(C)C)=C(Cl)C1=O (stereo not drawn) : 685 nM

* * *

This section presents compounds with their documented TGI values.
System: XF 498 CNS
Assay notes: NCI tumour cell line growth inhibition, 48 h
Write the number in µM without appending the unit.

Some compounds with known TGI results, for comparison:
O=c1cc(-c2ccco2)[nH]c2cc3c(cc12)OCO3; 82.4
N#CC1(C#N)C2C=CC(c3coc4cccc2c34)C1(C#N)C#N (configuration not stated); 15.3

Now for a further compound.
The recorded TGI for COc1ccc(/C=C2\CCC(CCN(C)C)(C3=CCCC3)C2=O)cc1Br (configuration not stated) is 8.72

* * *

Test system: HS 578T breast
Assay notes: NCI tumour cell line growth inhibition, 48 h
Would you please tag the item MET when its TGI is 50 µM or above, and NOT MET when it is below?

Examples with answers:
CN(C)CCNc1c2ccccc2nc2oc3ccccc3c12; NOT MET
O=C(Nc1cccc(Cl)c1)c1cccc(NC2=C(Cl)C(=O)N(Cc3ccccc3)C2=O)c1; MET

Exercise: Check this compound for TGI at or above 50 µM: "NS(=O)(=O)c1ccc(N(/C=C/C(=O)C(F)(F)F)Cc2ccc(Cl)cc2)cc1"
Solution: MET

Exercise: Does the compound COc1cc2c(cc1O)C1(Cc3ccc4c(c3C1=O)OCO4)N(C)CC2 (centres undefined) have recorded TGI that is 50 µM or more?
Solution: MET

Exercise: Record "CC(C)(C)OC(=O)NCCCC(=O)NC1(c2cc3ccccc3s2)CCCCC1" ; criterion: TGI no lower than 50 µM. Met?
Solution: NOT MET

Exercise: In plain terms: is recorded TGI at least 50 µM for "Oc1c(Br)cc(/C=C/c2cccc(/C=C/c3cc(Br)c(O)c(Br)c3)n2)cc1Br" ?
Solution: MET

Exercise: Decide: is the reported value of TGI for "CCOc1ccccc1-c1nc2c(s1)C(=O)c1ccccc1C2=O" equal to or greater than 50 µM?
Solution: MET

* * *

Test system: OVCAR-8 ovarian
Assay notes: NCI tumour cell line growth inhibition, 48 h
Measure name: TGI (µM)
Numbers only here, please. The scale is µM.

CC(CN(C)C)Oc1ccccc1NC1=C(Cl)C(=O)C(Nc2ccccc2OC(C)CN(C)C)=C(Cl)C1=O (centres undefined); 1.71

Now look at this entry.
TGI of "CC(=O)[CH-]C(=O)c1ccccc1.CC(=O)[CH-]C(=O)c1ccccc1.Cc1cc([O-])ccc1Cl.Cc1cc([O-])ccc1Cl.[Ti+4]" , assay on OVCAR-8 ovarian, is 59.1

* * *

Recorded TGI, one value per entry.
Test system: KM20L2 colon
Assay notes: NCI tumour cell line growth inhibition, 48 h

// TGI lookup, molecule = "CCc1cc(CCC(=O)Nc2ccccc2[N+](=O)[O-])[nH]c(=S)n1" , result: > 100 µM

Lookup result for "Cc1cccc(C(C)(C)C)c1NC(=O)CCc1nc(=S)[nH][nH]1" ; measured TGI: > 100 µM

For "CSc1snc2sc3c(Cl)nnnc3c12" the molecule record lists TGI as 30.9 µM

# molecule C=C1C(OC(=O)/C=C/c2ccccc2)CC(OC(C)=O)C2(C)C1CC1CC(OC(C)=O)C(C)=C(C(OC(C)=O)C2OC(C)=O)C1(C)C (stereo not given) ; its TGI = > 100 µM

* * *

Test system: OVCAR-8 ovarian
Assay notes: NCI tumour cell line growth inhibition, 48 h
Reported TGI by item:

Record excerpt, results attached:
O=C1c2c(ccc3c2CCC3)CC12Cc1ccccc1C2; > 100 µM
O=C(c1ccccc1)C1C(c2ccccc2)N1S(=O)(=O)c1ccccc1 (stereo unspecified); > 100 µM

Item: "CC1=NN(c2nc(N)nc(C/C(N)=N/O)n2)C(C)(C)C1" | TGI: > 100 µM

The recorded TGI for entry O=c1[nH]c(=O)n(C2CC(O)C(CO)O2)c2nc3ccc4cc5ccccc5cc4c3nc12 (stereo unspecified) equals > 100 µM

For reference, reported TGI for N#CC1(C#N)C2C=CC(c3coc4cccc2c34)C1(C#N)C#N (stereo unspecified) stands at 10.4 µM

// field: TGI; key: CC1(c2ccc(Cl)s2)CC(c2ccc(Cl)s2)=C(C#N)C(=C(C#N)C#N)N1 (stereo unspecified) ; value = 50.4 µM

* * *

Test system: NCI/ADR-RES ovarian
Assay notes: NCI tumour cell line growth inhibition, 48 h
Below: a set of entries, each annotated with reported TGI.

The reported value for CN1C(=O)C(O)CC1c1ccccc1C(F)(F)F (configuration not stated) in terms of TGI is > 100 µM

TGI reading for "CN(CC(=O)Nc1nc2ccccc2[nH]1)S(=O)(=O)c1ccc(Cl)cc1" : > 100 µM

For reference, reported TGI for COC1(OC)C=CC2C1C1C=CC2C1(OC)OC (configuration not stated) stands at > 100 µM

Given item CCOC(OCC)N1C(=O)C2(C(OCC)OCC)CC3C(OC(=O)N3N)c3cccc1c32 (configuration not stated) , the value recorded as its TGI is > 100 µM

Memo: CCN(CC)C(=S)SC(C(=O)Nc1nnc(-c2ccccc2)o1)c1ccccc1 (configuration not stated) , reported TGI: 41.1 µM

For "COc1ccc2c(c1)C(=O)/C(=C/c1ccc([N+](=O)[O-])o1)O2" the compound record lists TGI as > 38.9 µM

Data point: "O=C1c2ccccc2-c2c1c1c(O)cccc1n2Cc1ccccn1" ; TGI = > 100 µM

* * *

Tested on: BT-549 breast
Assay notes: NCI tumour cell line growth inhibition, 48 h
Measure name: TGI (µM)
Please respond with the number in µM and leave the unit unwritten.

Here is how some compounds turned out for TGI.
Cc1ccc(C(=O)/C(=C\c2ccc([N+](=O)[O-])cc2)S(=O)Cc2ccc(Cl)cc2)cc1 (stereo not given); 3.22
COC(=O)C1=C(C)NC(C)=C(C(=O)OC)C1c1ccc(N=O)cc1; 23

Entry "COc1cc(-c2csc(NC(=O)Nc3ccc(C(F)(F)F)cc3)n2)cc(OC)c1OC" , TGI reported as 6.94

* * *

Tested on: HT29 colon
Assay notes: NCI tumour cell line growth inhibition, 48 h
Measure name: TGI (µM)
Kindly provide the numeric value in µM only, without the unit symbol.

Study these solved cases before continuing.
O=C1C2CCN(CC2)C1(CO)CO; 73.7
CC(=O)OCC1OC(O[C@@H]2C[C@H]3C(C)(C)[C@@H](OC(C)=O)CC[C@]3(C)[C@H]3CC[C@]45C[C@]4(CC[C@H]5[C@@H](C)C[C@@H](O)[C@H](O)C(C)(C)F)[C@@]32C)C(O)C(O)C1O (stereo partly specified); 3.05

Okay, now this molecule:
The value of TGI measured for the molecule "O=C1NC(N2CCCCC2)=N/C1=C\c1ccc(Cl)cc1" turned out to be 35.7

* * *

Test system: 786-0 renal
Assay notes: NCI tumour cell line growth inhibition, 48 h
Measure name: GI50

The following compounds have reported results that may help.
CCOC(=O)c1cc(-c2ccccc2)[nH]c1N/N=C/c1ccc(Cl)cc1; 50.4 µM
NS(=O)(=O)CC1CC[CH-]CC1.[Cl-].[Cl-].[Cl-].[Cl-].[Cl-].[Sb+5].c1ccncc1; > 100 µM
CC1(N)CCN(c2cnc(-c3cccc(Cl)c3Cl)c(N)n2)CC1; 8.36 µM
Oc1ccc(C2c3ccccc3Oc3ccccc32)c2cccnc12; 1.64 µM
Cc1cc(N2CCOCC2)nc(N(CCCNc2ccnc3cc(Cl)ccc23)Cc2ccco2)n1; 1.58 µM
Clc1ccccc1CNc1c2ccccc2nc2ccccc12; 2.72 µM

// below: GI50 requested for another compound
Field GI50 (entry "CCn1c(-c2nonc2N)nc2c(C#CC(C)(C)O)ncc(OC[C@H]3CCCNC3)c21" ) reads 0.46 µM

* * *

Test system: EKVX NSCLC
Assay notes: NCI tumour cell line growth inhibition, 48 h
*1 amine or outer side, *2 acyl side, *3 side chain or, on linkers, in order; H or OH if unused. Where a SMILES comes first, the peptide text is derived from it. Bridges are numbered along the chain shown (N, C = ends). [ ]: non-standard residue; d: D form. The star is where a group is joined. X34 = O=C(C(CCCCNO[*:3])N[*:1])[*:2]; Fmoc = O=C(OCC1c2ccccc2-c2ccccc21)*
Consider the following molecules and their measured TGI readings.

Previously resolved entries follow.
N#CC1(C#N)C2C=CC(c3coc4cccc2c34)C1(C#N)C#N (centres undefined); 33 µM
CCOC(=O)c1cnc2c(ccc3ncccc32)c1NCCCN(CC)CC; > 100 µM
O=C(Nc1cccc(-c2ccc(Cl)c(C(F)(F)F)c2)c1)C1CCN(Cc2cccc3cccnc23)CC1; 3.15 µM
C[C@]12CC[C@@H]3c4ccc(O)cc4CC[C@H]3[C@@H]1CC[C@@H]2OC(=O)CCc1ccccc1; 25.4 µM
CCN(CC)Cc1ccc(C(=S)Nc2ccc(C)cc2)s1; 35.2 µM
Cc1ccc(C(=O)/C=C/c2cccc([N+](=O)[O-])c2)cc1; > 100 µM

Recorded TGI (molecule NC(=O)CNC(=O)C1CCCN1C(=O)C1CCCCNOC(=O)CCC(NC(=O)OCC2c3ccccc3-c3ccccc32)C(=O)NC(Cc2c[nH]c3ccccc23)C(=O)N1 (centres undefined) (Fmoc-EW[X34]PG-NH2; ester 1-3; configuration not given here) ): > 100 µM

Sample "Cc1nc2[nH]ncn2c(=O)c1CCCl" ; TGI observed: > 10 µM

Briefly, TGI measured for "CC(C)(C)OC(=O)NCCNCCNc1ccccc1" : > 100 µM
